Target: C-type lectin domain family 4 member E (Mus musculus) (UniProt Q9R0Q8)
Sequence (Q9R0Q8 whole entry, the tested form may be a part): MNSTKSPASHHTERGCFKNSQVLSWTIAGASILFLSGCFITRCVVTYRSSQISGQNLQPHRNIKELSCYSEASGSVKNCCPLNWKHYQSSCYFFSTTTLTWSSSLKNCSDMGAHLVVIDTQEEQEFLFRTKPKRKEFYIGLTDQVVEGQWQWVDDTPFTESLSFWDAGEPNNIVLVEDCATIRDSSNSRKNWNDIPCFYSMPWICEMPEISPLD
Test: Agonist activity at mincle in wild type C57BL/6 mouse GM-CSF derived BMDM assessed as increase in IL-1beta release at 0.1 to 1 nmol after 24 hrs by sandwich ELISA
Active and inactive are the calls of the source. The rule behind the calls is not given here.
Labels: yes (active), no (inactive)

[
  {
    "compound": "CCCCCCCCCCCCCCCCCCCCCC(=O)OC[C@H]1O[C@H](O[C@H]2O[C@H](COC(=O)CCCCCCCCCCCCCCCCCCCCC)[C@@H](O)[C@H](O)[C@H]2O)[C@H](O)[C@@H](O)[C@@H]1O",
    "group": "yes"
  },
  {
    "compound": "CCCCCCCOc1ccc(C(=O)OC[C@H]2O[C@H](O[C@H]3O[C@H](COC(=O)c4ccc(OCCCCCCC)cc4)[C@@H](O)[C@H](O)[C@H]3O)[C@H](O)[C@@H](O)[C@@H]2O)cc1",
    "group": "yes"
  },
  {
    "compound": "CCCCCCCCCCCCCCCCCCCCCCCCCC(O)C(CCCCCCCCCCC1CC1CCCCCCCCCCCCCCCCCC)C(=O)OC[C@H]1O[C@H](O[C@H]2O[C@H](COC(=O)C(CCCCCCCCCCCCCCCCCCCCCCCC)C(O)CCCCCCCCCCCC3CC3CCCCCCCCCCCCCCCCCC)[C@@H](O)[C@H](O)[C@H]2O)[C@H](O)[C@@H](O)[C@@H]1O (stereo partly specified)",
    "group": "yes"
  },
  {
    "compound": "O=C(OC[C@H]1O[C@H](O[C@H]2O[C@H](COC(=O)c3ccc(O)cc3O)[C@@H](O)[C@H](O)[C@H]2O)[C@H](O)[C@@H](O)[C@@H]1O)c1ccc(O)cc1O",
    "group": "no"
  },
  {
    "compound": "CCCCCCCCCCCCCCCCCCOc1ccc(C(=O)OC[C@H]2O[C@H](O[C@H]3O[C@H](COC(=O)c4ccc(OCCCCCCCCCCCCCCCCCC)cc4)[C@@H](O)[C@H](O)[C@H]3O)[C@H](O)[C@@H](O)[C@@H]2O)cc1",
    "group": "yes"
  },
  {
    "compound": "CCCCCCCOc1ccc(C(=O)OC[C@H]2O[C@H](O[C@H]3O[C@H](COC(=O)c4ccc(OCCCCCCC)cc4O)[C@@H](O)[C@H](O)[C@H]3O)[C@H](O)[C@@H](O)[C@@H]2O)c(O)c1",
    "group": "yes"
  },
  {
    "compound": "CCCCOc1ccc(C(=O)OC[C@H]2O[C@H](O[C@H]3O[C@H](COC(=O)c4ccc(OCCCC)cc4O)[C@@H](O)[C@H](O)[C@H]3O)[C@H](O)[C@@H](O)[C@@H]2O)c(O)c1",
    "group": "no"
  },
  {
    "compound": "CCCCCCCCCCCCCCCCCCOc1cc(C)c(C(=O)OC[C@H]2O[C@H](O[C@H]3O[C@H](COC(=O)c4c(C)cc(OCCCCCCCCCCCCCCCCCC)cc4O)[C@@H](O)[C@H](O)[C@H]3O)[C@H](O)[C@@H](O)[C@@H]2O)c(O)c1",
    "group": "yes"
  },
  {
    "compound": "Cc1cc(O)cc(O)c1C(=O)OC[C@H]1O[C@H](O[C@H]2O[C@H](COC(=O)c3c(C)cc(O)cc3O)[C@@H](O)[C@H](O)[C@H]2O)[C@H](O)[C@@H](O)[C@@H]1O [BRARTEMICIN]",
    "group": "no"
  },
  {
    "compound": "CCCCCCCCCCCCCCCCCCOc1ccc(C(=O)OC[C@H]2O[C@H](O[C@H]3O[C@H](COC(=O)c4ccc(OCCCCCCCCCCCCCCCCCC)cc4O)[C@@H](O)[C@H](O)[C@H]3O)[C@H](O)[C@@H](O)[C@@H]2O)c(O)c1",
    "group": "yes"
  },
  {
    "compound": "COc1ccc(C(=O)OC[C@H]2O[C@H](O[C@H]3O[C@H](COC(=O)c4ccc(OC)cc4O)[C@@H](O)[C@H](O)[C@H]3O)[C@H](O)[C@@H](O)[C@@H]2O)c(O)c1",
    "group": "no"
  }
]
